# System: C. parapsilosis 2 strains
# Construct: 2 clinical isolates
# Procedure text: microbe, parasite or virus in culture
# Design: species or system clinical Candida isolates; CLSI broth microdilution MIC, Sabouraud dextrose broth, 35 °C, visual complete growth inhibition
# Assay setup: Lodderomyces parapsilosis, 24 h, read-out: Tested Fungi (MIC Values μg/mL) / C. parapsilosis 2 strains
# Description: The in vitro antifungal activities were determined by the broth microdilution method with sabouraud dextrose broth (BBL Microbiology Systems, Cockeysville, MD, USA), as recommended by the by the CLSI [43]. […] The antimicrobial activity of these thiazolidinones was evaluated versus 24 clinical Gram-positive (S. aureus and S. epidermidis) and Gram-negative (E. coli and Enterobacter spp.) microorganisms. […]
Consider the following compounds and their measured MIC readings.
Field format: number, assumed µg/mL, no unit text.

Prompt: Dear colleague, I am looking for the recorded MIC of the following compound: O=C(N/N=C1\SCC(=O)N1c1cccc(C(F)(F)F)c1)C(O)c1ccccc1 (stereo not drawn) [3o]
Response: 32

Prompt: Which MIC value belongs to CC1S/C(=N\NC(=O)C(O)c2ccccc2)N(c2ccc(F)cc2)C1=O (stereo not drawn) [4b] ?
Response: 8

Prompt: Fill in: MIC of O=C(N/N=C1\SCC(=O)N1c1cccc(Br)c1)C(O)c1ccccc1 (stereo not drawn) [3h] is ___
Response: 8

Prompt: Could you share which MIC value was measured for COc1ccc(N2C(=O)CS/C2=N\NC(=O)C(O)c2ccccc2)cc1 (stereo not drawn) [3m] ?
Response: 32

Prompt: Which MIC is reported for this compound? O=C(N/N=C1\SCC(=O)N1c1ccc([N+](=O)[O-])cc1)C(O)c1ccccc1 (stereo not drawn) [3n]
Response: 32

Prompt: So what's the measured MIC for this one? O=C(N/N=C1\SCC(=O)N1c1ccc(Cl)cc1)C(O)c1ccccc1 (stereo not drawn) [3f]
Response: 16

Prompt: Tell me the measured MIC of O=C(N/N=C1\SCC(=O)N1c1ccccc1F)C(O)c1ccccc1 (stereo not drawn) [3a] , please.
Response: 32

Prompt: Given the compound CC1S/C(=N\NC(=O)C(O)c2ccccc2)N(c2cccc(Cl)c2)C1=O (stereo not drawn) [4c] , what is its reported MIC?
Response: 8

Prompt: // lookup MIC for OC(Cn1cncn1)(Cn1cncn1)c1ccc(F)cc1F [Fluconazole]
Response: 2

* * *

# key: entry, value: pKi
# Target entity: CgNce103 (Nakaseomyces glabratus)
# Construct: recombinant, obtained in-house as previously reported; beta-class zinc enzyme
# Sequence (Q6FTL6 1-219): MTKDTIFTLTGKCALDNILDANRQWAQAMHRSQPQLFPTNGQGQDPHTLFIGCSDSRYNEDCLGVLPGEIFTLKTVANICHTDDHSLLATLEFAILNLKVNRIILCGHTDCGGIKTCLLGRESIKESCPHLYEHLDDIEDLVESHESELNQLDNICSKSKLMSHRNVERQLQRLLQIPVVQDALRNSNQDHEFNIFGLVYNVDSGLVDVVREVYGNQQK
# Procedure text: stopped-flow CO2 hydrase assay
Interpret pKi as the negative base-10 log of the concentration measured in mol/L.

These recorded examples may help you get a feel for the data.
# Compound, Target entity, pKi
measured = [
    ("CC1S/C(=N\\NC(=O)C(O)c2ccccc2)N(c2ccc(F)cc2)C1=O (stereo not shown)", "CgNce103 (Nakaseomyces glabratus)", 6.32),
    ("CC1S/C(=N\\NC(=O)C(O)c2ccccc2)N(c2cccc(Cl)c2)C1=O (stereo not shown)", "CgNce103 (Nakaseomyces glabratus)", 6.92),
]

Prompt: pKi for O=C(N/N=C1\SCC(=O)N1c1cccc(Br)c1)C(O)c1ccccc1 (stereo not shown) ?
Response: 6.09

Prompt: Can you look up the measured pKi of O=C(N/N=C1\SCC(=O)N1c1ccccc1Cl)C(O)c1ccccc1 (stereo not shown) for me?
Response: 6.49
